tested on: Pseudomonas aeruginosa; experiment: Activity of Pseudomonas aeruginosa 166301 beta-lactamase VIM-16
Kindly supply the reported Km values for the records listed here.

Q. Entry O=C(Cc1cccs1)N[C@@H]1C(=O)N2C(C(=O)[O-])=C(C[n+]3ccccc3)CS[C@H]12 , system Pseudomonas aeruginosa: what Km was measured?
A. 1400 µM

Q. What about this compound? CO/N=C(\C(=O)N[C@@H]1C(=O)N2C(C(=O)O)=C(COC(C)=O)CS[C@H]12)c1csc(N)n1
A. 240 µM

Q. What about this compound? CC(C)(O/N=C(\C(=O)N[C@@H]1C(=O)N2C(C(=O)[O-])=C(C[n+]3ccccc3)CS[C@H]12)c1csc(N)n1)C(=O)O
A. 150 µM

Q. What about this compound? CO/N=C(\C(=O)N[C@@H]1C(=O)N2C(C(=O)[O-])=C(C[N+]3(C)CCCC3)CS[C@H]12)c1csc(N)n1
A. 210 µM

Q. What about this compound? C[C@@H](O)[C@H]1C(=O)N2C(C(=O)O)=C(SCCNC=N)C[C@H]12 [IMIPENEM ANHYDROUS]
A. 89 µM

###

test system: Pseudomonas aeruginosa; assay: Activity of Pseudomonas aeruginosa 9551 beta-lactamase VIM-15
Kindly supply the reported kcat values for the records listed here.
Give just the numeric value; s⁻¹ need not be written.

Q. Requested field: kcat. Item: C[C@@H](O)[C@H]1C(=O)N2C(C(=O)O)=C(SCCNC=N)C[C@H]12 [IMIPENEM ANHYDROUS]
A. 61

Q. What about this compound? CC(C)(O/N=C(\C(=O)N[C@@H]1C(=O)N2C(C(=O)[O-])=C(C[n+]3ccccc3)CS[C@H]12)c1csc(N)n1)C(=O)O
A. 1

Q. What about this compound? CO/N=C(\C(=O)N[C@@H]1C(=O)N2C(C(=O)[O-])=C(C[N+]3(C)CCCC3)CS[C@H]12)c1csc(N)n1
A. 9.5

Q. What about this compound? O=C(Cc1cccs1)N[C@@H]1C(=O)N2C(C(=O)[O-])=C(C[n+]3ccccc3)CS[C@H]12
A. 190

Q. What about this compound? CO/N=C(\C(=O)N[C@@H]1C(=O)N2C(C(=O)O)=C(COC(C)=O)CS[C@H]12)c1csc(N)n1
A. 90

###

Kindly supply the reported Activity values for the records listed here.
system: Pseudomonas aeruginosa; assay: Ratio of Kcat to Km for Pseudomonas aeruginosa 9551 beta-lactamase VIM-15 relative to cephaloridine

Q. Entry CC(C)(O/N=C(\C(=O)N[C@@H]1C(=O)N2C(C(=O)[O-])=C(C[n+]3ccccc3)CS[C@H]12)c1csc(N)n1)C(=O)O , system Pseudomonas aeruginosa: what Activity was measured?
A. 1.2%

Q. What about this compound? C[C@@H](O)[C@H]1C(=O)N2C(C(=O)O)=C(SCCNC=N)C[C@H]12 [IMIPENEM ANHYDROUS]
A. 370%

Q. What about this compound? CO/N=C(\C(=O)N[C@@H]1C(=O)N2C(C(=O)O)=C(COC(C)=O)CS[C@H]12)c1csc(N)n1
A. 300%

Q. What about this compound? O=C(Cc1cccs1)N[C@@H]1C(=O)N2C(C(=O)[O-])=C(C[n+]3ccccc3)CS[C@H]12
A. 100%

###

tested on: Pseudomonas aeruginosa; assay: Activity of Pseudomonas aeruginosa 166301 beta-lactamase VIM-16
Kindly supply the reported kcat values for the records listed here.
Give just the numeric value; s⁻¹ need not be written.

Q. Entry CO/N=C(\C(=O)N[C@@H]1C(=O)N2C(C(=O)[O-])=C(C[N+]3(C)CCCC3)CS[C@H]12)c1csc(N)n1 , system Pseudomonas aeruginosa: what kcat was measured?
A. 0.31

Q. What about this compound? CC(C)(O/N=C(\C(=O)N[C@@H]1C(=O)N2C(C(=O)[O-])=C(C[n+]3ccccc3)CS[C@H]12)c1csc(N)n1)C(=O)O
A. 0.22

Q. What about this compound? CO/N=C(\C(=O)N[C@@H]1C(=O)N2C(C(=O)O)=C(COC(C)=O)CS[C@H]12)c1csc(N)n1
A. 81

Q. What about this compound? C[C@@H](O)[C@H]1C(=O)N2C(C(=O)O)=C(SCCNC=N)C[C@H]12 [IMIPENEM ANHYDROUS]
A. 45

Q. What about this compound? O=C(Cc1cccs1)N[C@@H]1C(=O)N2C(C(=O)[O-])=C(C[n+]3ccccc3)CS[C@H]12
A. 89

###

tested on: Pseudomonas aeruginosa; test: Ratio of Kcat to Km for Pseudomonas aeruginosa 166301 beta-lactamase VIM-16 relative to cephaloridine
MEASUREMENT TYPE: Activity

Q. Entry C[C@@H](O)[C@H]1C(=O)N2C(C(=O)O)=C(S[C@@H]3CN[C@H](C(=O)N(C)C)C3)[C@H](C)[C@H]12 , system Pseudomonas aeruginosa: what Activity was measured?
A. 110%

Q. What about this compound? CO/N=C(\C(=O)N[C@@H]1C(=O)N2C(C(=O)O)=C(COC(C)=O)CS[C@H]12)c1csc(N)n1
A. 530%

Q. What about this compound? C[C@@H](O)[C@H]1C(=O)N2C(C(=O)O)=C(SCCNC=N)C[C@H]12 [IMIPENEM ANHYDROUS]
A. 800%

Q. What about this compound? CC(C)(O/N=C(\C(=O)N[C@@H]1C(=O)N2C(C(=O)[O-])=C(C[n+]3ccccc3)CS[C@H]12)c1csc(N)n1)C(=O)O
A. 2.2%

Q. What about this compound? CO/N=C(\C(=O)N[C@@H]1C(=O)N2C(C(=O)[O-])=C(C[N+]3(C)CCCC3)CS[C@H]12)c1csc(N)n1
A. 2.3%

Q. What about this compound? CC1(C)S[C@@H]2[C@H](NC(=O)Cc3ccccc3)C(=O)N2[C@H]1C(=O)O
A. 800%

Q. What about this compound? O=C(Cc1cccs1)N[C@@H]1C(=O)N2C(C(=O)[O-])=C(C[n+]3ccccc3)CS[C@H]12
A. 100%

###

Kindly supply the reported kcat/Km values for the records listed here.
test system: Pseudomonas aeruginosa; assay: Ratio of Kcat to Km for Pseudomonas aeruginosa 9551 beta-lactamase VIM-15
Give just the numeric value; M⁻¹ s⁻¹ need not be written.

Q. Requested field: kcat/Km. Item: C[C@@H](O)[C@H]1C(=O)N2C(C(=O)O)=C(SCCNC=N)C[C@H]12 [IMIPENEM ANHYDROUS]
A. 8.4e+06

Q. What about this compound? O=C(Cc1cccs1)N[C@@H]1C(=O)N2C(C(=O)[O-])=C(C[n+]3ccccc3)CS[C@H]12
A. 2.3e+06

Q. What about this compound? CC(C)(O/N=C(\C(=O)N[C@@H]1C(=O)N2C(C(=O)[O-])=C(C[n+]3ccccc3)CS[C@H]12)c1csc(N)n1)C(=O)O
A. 27000

Q. What about this compound? CO/N=C(\C(=O)N[C@@H]1C(=O)N2C(C(=O)O)=C(COC(C)=O)CS[C@H]12)c1csc(N)n1
A. 6.9e+06

Q. What about this compound? CO/N=C(\C(=O)N[C@@H]1C(=O)N2C(C(=O)[O-])=C(C[N+]3(C)CCCC3)CS[C@H]12)c1csc(N)n1
A. 76000

###

system: Pseudomonas aeruginosa; assay: Activity of Pseudomonas aeruginosa 9551 beta-lactamase VIM-15
MEASUREMENT TYPE: Km (µM)
Give just the numeric value; µM need not be written.

Q. Entry CO/N=C(\C(=O)N[C@@H]1C(=O)N2C(C(=O)[O-])=C(C[N+]3(C)CCCC3)CS[C@H]12)c1csc(N)n1 , system Pseudomonas aeruginosa: what Km was measured?
A. 130

Q. What about this compound? O=C(Cc1cccs1)N[C@@H]1C(=O)N2C(C(=O)[O-])=C(C[n+]3ccccc3)CS[C@H]12
A. 83

Q. What about this compound? CC(C)(O/N=C(\C(=O)N[C@@H]1C(=O)N2C(C(=O)[O-])=C(C[n+]3ccccc3)CS[C@H]12)c1csc(N)n1)C(=O)O
A. 37

Q. What about this compound? CO/N=C(\C(=O)N[C@@H]1C(=O)N2C(C(=O)O)=C(COC(C)=O)CS[C@H]12)c1csc(N)n1
A. 13

Q. What about this compound? C[C@@H](O)[C@H]1C(=O)N2C(C(=O)O)=C(SCCNC=N)C[C@H]12 [IMIPENEM ANHYDROUS]
A. 7.3

###

system: Escherichia coli; experiment: Antimicrobial activity against Escherichia coli DH5alpha harboring beta-lactamase VIM-15 by agar dilution method; format: functional; settings: DH5[alpha]
Criterion: MIC strictly under 0.5 µg/mL. Met: class 1. Not met: class 0.

Q. Please determine if C[C@@H](O)[C@H]1C(=O)N2C(C(=O)O)=C(S[C@@H]3CN[C@H](C(=O)N(C)C)C3)[C@H](C)[C@H]12 [MEROPENEM] is below 0.5 µg/mL in terms of MIC.
A. class 1

Q. What about this molecule? C[C@H]1[C@H](NC(=O)/C(=N\OC(C)(C)C(=O)O)c2csc(N)n2)C(=O)N1S(=O)(=O)O [AZTREONAM]
A. class 1

Q. What about this molecule? CO/N=C(\C(=O)N[C@@H]1C(=O)N2C(C(=O)O)=C(COC(C)=O)CS[C@H]12)c1csc(N)n1 [CEFOTAXIME]
A. class 0

Q. What about this molecule? CC1(C)S[C@@H]2[C@H](NC(=O)[C@H](N)c3ccc(O)cc3)C(=O)N2[C@H]1C(=O)O [AMOXICILLIN]
A. class 0

Q. What about this molecule? NC[C@H]1O[C@H](O[C@H]2[C@H](O)[C@@H](O[C@H]3O[C@H](CO)[C@@H](O)[C@H](N)[C@H]3O)[C@H](N)C[C@@H]2N)[C@H](N)C[C@@H]1O [TOBRAMYCIN]
A. class 1

Q. What about this molecule? CO/N=C(\C(=O)N[C@@H]1C(=O)N2C(C(=O)[O-])=C(C[N+]3(C)CCCC3)CS[C@H]12)c1csc(N)n1
A. class 1
